These entries and their values trace back to patent US8455399B2.

System: Thrips tabaci
Assay: Thrips tabaci (onion thrips) leaf disc spray test
Format: in vivo
Conditions: foliar, 168 h, 200 ppm sprayed on sunflower leaf discs, population of mixed ages, mortality after 7 days
Endpoint: pest or weed control at 200 ppm

Check out these entries, answers already filled in.
O=C(Nc1cc(C(=O)Nc2c(Br)cc(C(F)(C(F)(F)F)C(F)(F)C(F)(F)F)cc2Br)ccc1-n1cncn1)c1ccc(F)cc1 (stereo not drawn) [D7]: ≥ 80%
CCc1cc(C(F)(C(F)(F)F)C(F)(F)C(F)(F)F)cc(C)c1NC(=O)c1ccc(-n2cncn2)c(NC(=O)c2ccc(F)cc2Cl)c1 (stereo not drawn) [D4]: ≥ 80%

Problem: Param readout= pest or weed control at 200 ppm; system= Thrips tabaci; entry= O=C(Nc1c(Br)cc(C(F)(C(F)(F)F)C(F)(F)C(F)(F)F)cc1Br)c1ccc(-n2cncn2)c(NC(=O)c2ccc(F)cc2Cl)c1 (stereo not drawn) [D9] ; returns value.
Result: ≥ 80%

----------
Test system: Heliothis virescens
Assay: Heliothis virescens (tobacco budworm) egg/artificial diet test
Type: in vivo
Conditions: 96 h, 200 ppm (concentration in well 18 ppm), eggs 0-24 h old on artificial diet, egg mortality, larval mortality, growth regulation after 4 days
Form field: pest or weed control at 200 ppm (one value per entry).

Below, 2 compounds whose answers are already recorded.
Cc1cc(C(F)(C(F)(F)F)C(F)(F)F)cc(C)c1NC(=O)c1ccc(-n2cncn2)c(N)c1 [B1]: ≥ 80%
CCc1cc(C(F)(C(F)(F)F)C(F)(F)C(F)(F)F)cc(C)c1NC(=O)c1ccc(-n2cncn2)c(N)c1 (stereo not drawn) [B3]: ≥ 80%

Now, please, on to the next compound.
Problem: Give the measured pest or weed control at 200 ppm of CCc1cc(C(F)(C(F)(F)F)C(F)(F)C(F)(F)F)cc(C)c1NC(=O)c1ccc(-n2cncn2)c(NC(=O)c2ccc(F)cc2)c1 (stereo not drawn) [D6] .
Result: ≥ 80%

----------
Test system: Tetranychus urticae
Test: Tetranychus urticae (two-spotted spider mite) leaf disc spray test
Format: in vivo
Conditions: foliar, 192 h, 200 ppm sprayed on bean leaf discs, mite populations of mixed ages, egg, larval and adult mortality 8 days later
Measured pest or weed control at 200 ppm of individual entries

Example entries begin here.
CCc1cc(C(F)(C(F)(F)F)C(F)(F)C(F)(F)F)cc(C)c1NC(=O)c1ccc(-n2cncn2)c(NC(=O)c2ccc(F)cc2Cl)c1 (stereo not drawn): ≥ 80%
CCc1cc(C(F)(C(F)(F)F)C(F)(F)C(F)(F)F)cc(C)c1NC(=O)c1ccc(-n2cncn2)c(NC(=O)c2ccc(F)cc2)c1 (stereo not drawn): ≥ 80%

Problem: Consider the compound shown here: Cc1c(C(=O)Nc2cc(C(=O)Nc3c(Br)cc(C(F)(C(F)(F)F)C(F)(F)C(F)(F)F)cc3Br)ccc2-n2cncn2)cccc1[N+](=O)[O-] (stereo not drawn) What is its recorded pest or weed control at 200 ppm?
Result: ≥ 80%

Problem: Next up: Cc1cc(C(F)(C(F)(F)F)C(F)(F)F)cc(C)c1NC(=O)c1ccc(-n2cncn2)c([N+](=O)[O-])c1
Result: ≥ 80%

Problem: CCc1cc(C(F)(C(F)(F)F)C(F)(F)C(F)(F)F)cc(C)c1NC(=O)c1ccc(-n2cncn2)c([N+](=O)[O-])c1 (stereo not drawn) , same question.
Result: ≥ 80%

Problem: Follow-up entry: O=C(Nc1c(Br)cc(C(F)(C(F)(F)F)C(F)(F)C(F)(F)F)cc1Br)c1ccc(-n2cncn2)c([N+](=O)[O-])c1 (stereo not drawn)
Result: ≥ 80%

Problem: Now the same for CCc1cc(C(F)(C(F)(F)F)C(F)(F)F)cc(CC)c1NC(=O)c1ccc(-n2cncn2)c(N)c1
Result: ≥ 80%

Problem: Please do the same for CCc1cc(C(F)(C(F)(F)F)C(F)(F)C(F)(F)F)cc(C)c1NC(=O)c1ccc(-n2cncn2)c(NC(=O)c2cccc([N+](=O)[O-])c2C)c1 (stereo not drawn) as well.
Result: ≥ 80%

Problem: Next entry: Nc1cc(C(=O)Nc2c(Br)cc(C(F)(C(F)(F)F)C(F)(F)C(F)(F)F)cc2Br)ccc1-n1cncn1 (stereo not drawn)
Result: ≥ 80%

Problem: Next up: O=C(Nc1c(Br)cc(C(F)(C(F)(F)F)C(F)(F)C(F)(F)F)cc1Br)c1ccc(-n2cncn2)c(NC(=O)c2ccc(F)cc2Cl)c1 (stereo not drawn)
Result: ≥ 80%

Problem: Would you mind doing CCc1cc(C(F)(C(F)(F)F)C(F)(F)C(F)(F)F)cc(C)c1NC(=O)c1ccc(-n2cncn2)c(N)c1 (stereo not drawn) as well?
Result: ≥ 80%

Problem: One more compound: Cc1cc(C(F)(C(F)(F)F)C(F)(F)F)cc(C)c1NC(=O)c1ccc(-n2cncn2)c(N)c1
Result: ≥ 80%
